The reader will find reported PBM binding z-score values listed item by item below.
- System: PPARg:RXRa DBDmut IVT, anti-RXR (DBD mutation: RXRa K156A/R161A, NR concentration 270 nM, RXRa partner concentration 90 nM)
- experimentSummary: PBM binding z-score (relative to random genomic background probes); higher = stronger binding; sequences stand for … in GC…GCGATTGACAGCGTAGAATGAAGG
Give only the figure.

Worked set:
TAGCCTAGCTCATGGGCCAGTATACCACGCGAAC ... -1.04
GATACAGGGTCAAGGCTAGAGTACGCGTATTGAT ... 3.54
ATATGTGGGTTACATCCGGGTCATTCAGGCTATG ... 6.84
CCTAGCACGCCAATCTGGGTCACTCAAGGCTTGA ... 3.75
AGAACGAGGGCAATGAGTTGATAGAACGGGTGGC ... 3.29

Query: What does the data say about its PBM binding z-score? Entry: CGTAGTTGGTCAGGAGGTCACACACCGGATATGA
Reply: 1.51

Query: What does the record list as PBM binding z-score for TAGCCTAGGTCATCGGCCAGTATACCACGCGAAC ?
Reply: 1.44

Query: What value of PBM binding z-score has been reported for the following sequence? GTACCAAGGGGAATAGGTCGTTGATGAGTAGGCG
Reply: -0.45

Query: Please report the recorded PBM binding z-score for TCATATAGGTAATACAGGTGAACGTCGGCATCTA .
Reply: 4.33

Query: Please give the measured PBM binding z-score for this sequence: ACAGTCAGGTGAGTGAAGGTAACTCAGCTGGACG
Reply: 0.794

Query: Which measured PBM binding z-score value corresponds to TCGAGTAGGTTAGTCCGGGCATTCAGCCAACATA ?
Reply: 1.83

Query: Entry CCTGGTTGGTCAGGAGGTCACACACCGGATATGA : reported PBM binding z-score = ?
Reply: -0.199

Query: # PBM binding z-score lookup, item CTCGAAAGGTCCGTTGAGGTGAGTATACGGATAA
Reply: -0.499

Query: For the sequence TCGGACAGGTGAAGGTAACTCAGGTACGCAGTCG , what PBM binding z-score is on record?
Reply: 2.03

Query: // returns reported PBM binding z-score for input TCATTTAGGTAAACAGGTGAAAGTCCGTAAGTTA
Reply: 3.9

Query: GET /values?readout=PBM binding z-score&item= ATCGAAAGGTCGACGAGGTGAGGATACACCGTTT
Reply: 0.8

Query: Could you share which PBM binding z-score value was measured for GTACCAAGGCGAATAGGTCGTTGATGAGTAGGCG ?
Reply: -0.264

Query: PBM binding z-score for GCTAGCAGGCCATTTGGGTGACTCAATGACGGGC ?
Reply: 1.46

Query: Please look up its PBM binding z-score: CAAACTAGGTCAAGGTCAAAGTCGGTTTGTGCCA
Reply: 8.86

Query: Sample TAGCCTAGGTCATTGGCCCAGTATAGTACGCATC — what was its PBM binding z-score?
Reply: 1.34
